Biological target: T1, VEGFR-3-Fc (UniProt P35916 25-328)
T1 construct: domain: first three Ig domains; conditioned supernatant of 293T cells; also called VEGFR-3-Fc fusion protein; not shown: Fc fragment of the pIg vector
T1 sequence (looked up): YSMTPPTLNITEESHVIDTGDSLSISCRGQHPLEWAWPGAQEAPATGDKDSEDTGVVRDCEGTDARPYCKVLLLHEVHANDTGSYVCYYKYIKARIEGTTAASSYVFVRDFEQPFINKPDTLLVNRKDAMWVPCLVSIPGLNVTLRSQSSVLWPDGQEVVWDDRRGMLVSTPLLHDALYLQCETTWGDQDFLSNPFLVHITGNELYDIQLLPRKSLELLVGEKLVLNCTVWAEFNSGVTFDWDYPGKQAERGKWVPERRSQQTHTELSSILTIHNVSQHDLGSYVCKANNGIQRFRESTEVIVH
Assay: receptor-Fc IP
property_measured: binding result

| binder | property_measured | test_result |
| --- | --- | --- |
| 24-9 (ligand) AHYNTEILKSIDNEWRKTQCMPREVCIDVGKEFGVATNTFFKPSCVPLMRCGGCCNDEGLECVPTEESNITMQIMRITVPLSQGPKPVTISFLQHNKCECRPKKD | binding result | no binding |
| 22-4 (ligand) AHYNTEILKSIDNEWRKTQCMPREVCIDVGKEFGVATNTFFKPPCVSVYRCGGCCNSEGLQCMNTSTSYLSKTLFEIKPHQGQHIGEMSFLQHNKCECRPKKD | binding result | binds |
| 42-15 (ligand) AHYNTEILKFMDVYQRSYCHPREVCIDVGKEFGVATNTFFKPPCVSVYRCGGCCNSEGLQCVPTEESNITMQIMRITVPLSQGPKPVTISFANHTSCRCMSKLD | binding result | no binding |
| 53-13 (ligand) AHYNTEILKSIDNEWRKTQCMPIETLVDIFQEYPDEIEYIFKPPCVSVYRCGGCCNDEGLECVPTEESNITMQIMRITVPLSQGPKPVTISFANHTSCRCMSKLD | binding result | no binding |
